Entry source: patent US20230106715A1

Biological target: T1, cynomolgus monkey Siglec15-his protein (cynomolgus monkey)
T1 construct: In house made; also called Cynomolgus Siglec15-his; cynomolgus Siglec15
T1 chain: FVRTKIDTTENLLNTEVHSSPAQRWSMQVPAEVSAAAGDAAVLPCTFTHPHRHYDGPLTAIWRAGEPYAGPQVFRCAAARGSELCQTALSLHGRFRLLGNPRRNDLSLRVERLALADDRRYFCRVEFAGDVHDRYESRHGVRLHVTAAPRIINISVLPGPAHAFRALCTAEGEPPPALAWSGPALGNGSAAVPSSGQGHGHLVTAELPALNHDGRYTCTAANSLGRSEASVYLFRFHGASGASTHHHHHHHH
Assay: indirect ELISA on coated cynomolgus Siglec15-his
experimentalReadout: EC50 (nM)

1. B2H2H1H7 (antibody, V domains shown, Mouse monoclonal antibody from hybridoma; also called mouse B2H2H1H7; B2H2H1A7) VH: QVQLQQSGAELVRPGTSVQMSCKAAGYTFTNYWIGWVKQRPGHGLEWVGDIHPGINYTNNNEKFRGKATLTADTSSSTAYMQLRGLTSDDSAIYYCARVDYDYDGSYIMDYWGQGTSVTVSS VL: QIILSQSPALLSASPGEKVTMTCRASSSVSYMYWYQQKPGSSPKPWIYATSNLTSGVPARFSGSGSGTSYSLTISRVEAEDAATYFCQQWNSKPWTFGGGSRLEIR ... 0.179
2. anti-Siglec15 benchmark (ch5G12) (antibody, human IgG1, kappa, V domains shown, ch5G12 (US 20190202912A1); also called BM; Siglec15-ch5G9) VH: QVQLQQPGAELVKPGASVKMSCKASGYTFTSYWITWVIQRPGQGLEWIGDIYCGSDTMHYNEKFKNKATLTVDTSSSTAYMQLSSLTSEDSAVYYCARWWDYGSSYDYFDYWGQGTTLTVSS VL: DIKMTQSPSSMYASLGERVTITCKASQDINSYLSWFQQKPGKSPKTLIYRANRLVDGVPSRFSGSGSGQDYSLTISSLEYEDMGIYYCLQYDEFPYTFGGGTKLEIKR ... 0.201
3. B2G12H3E8 (antibody, V domains shown, Mouse monoclonal antibody from hybridoma; also called mouse B2G12H3E8) VH: QVQLKQSGAELVRPGTSVQMSCKAVGYTFTNYWIGWVKQRPGHGLEWVGDIHPGINYTNNNEKFRGKATLTADTSSSTAYMQLRGLTSDDSAIYYCARVDYDYDGSYIMDYWGQGTSVTVSS VL: QIVLSQSPALLSASPGEKVTMTCRASSSVSYMYWYQQKPGSSPKPWIYATSNLTSGVPARFSGSGSGTSYSLTISRVEAEDAATYFCQQWNSKPWTFGGGSKLEIR ... 0.146
4. B2D7H7A3C1 (antibody, V domains shown, Mouse monoclonal antibody from hybridoma; also called mouse B2D7H7A3C1) VH: QVQLQQSGAELVRPGTSVQMSCKAAGYTFTNYWIGWVKQRPGHGLEWVGDIHPGINYTNNNEKFRGKATLTADTSSNTAYMQLRGLTSDDSAIYYCARVDYDYDGSYIMDYWGQGTSVTVSS VL: QIVLSQSPALLSASPGEKVTMTCRASSSVSYMYWYQQKPGSSPKPWIYATSNLTSGVPARFSGSGSGTSYSLTISRVEAEDAATYFCQQWNSKPWTFGGGSKLEIR ... 0.197
